- SYSTEM_TESTED: Polyunsaturated fatty acid lipoxygenase ALOX12 (Homo sapiens)
- EXPERIMENT: Primary qHTS assay for inhibitors of human arachidonate 12S-lipoxygenase (ALOX12): Round 2
- APPLIED_CONDITIONS: purified 12hLO, xylenol orange hydroperoxide absorbance; series mostly up to 108 µM
- Source text: Assay Provider: Theodore R. Holman Ph.D. University of California, Santa Cruz, California Human lipoxygenase 12hLO is a member of the closely related lipoxygenase family of enzymes which catalyze the site-specific oxidation of arachidonic acid to various hormone precursor molecules and as such is a candidate for drug development in a variety of disease areas, such as cancer and inflammation. […] The Fe (III)-XO complex is characterized with red-shifted absorbance at 560 nm. […]
Among all 580,000 compounds or so, about 6,100 (1.1%) were called active. Inconclusive results (about 15%) are left out. The call rests on the fitted dose curve; in most records, active means well fitted inhibition curve with a large enough effect; inconclusive means small, poorly fitted or top-dose-only effect, or another doubt; inactive means no such curve, though single readings can be large or run the other way. The full list was thinned out, with actives kept by preference.
Write down one outcome, taken from 1 = active, -1 = inactive

Problem: Short answer needed: outcome of this test for COC(=O)C1=C(c2ccc3ccccc3c2)C[C@@H]2CC[C@H]1N2C(=O)NCCO ?
Result: -1

Problem: Short answer needed: outcome of this test for c1cncc(CNCCc2c[nH]c3ccccc23)c1 ?
Result: -1

Problem: Short answer needed: outcome of this test for ClCc1cccnc1 ?
Result: 1

Problem: Short answer needed: outcome of this test for COc1nc2c(cc1CNC(=O)C1C(C)(C)C1(C)C)C(=O)N(C1CCCC1)C2 ?
Result: -1

Problem: Short answer needed: outcome of this test for Cc1ncoc1C(=O)NCC1=C(c2cccc3ccccc23)C[C@@H]2CC[C@H]1N2Cc1ccco1 ?
Result: -1

Problem: Short answer needed: outcome of this test for CN(Cc1ccccc1)C[C@H]1CN2CC[C@H]1C[C@@H]2CNC(=O)Nc1ccsc1 ?
Result: -1

Problem: Short answer needed: outcome of this test for O=C(Nc1ccccc1)[C@H]1CN2CCC1C[C@@H]2Cn1cc(CO)nn1 (stereo not given in full) ?
Result: -1

Problem: Short answer needed: outcome of this test for COc1cc2c(cc1OC1CCCC1)NC(=O)C21CCN(c2nccs2)CC1 ?
Result: -1

Problem: Short answer needed: outcome of this test for O=C1NC(=O)N(c2ccccc2)C(=O)/C1=C/c1ccc([N+](=O)[O-])s1 ?
Result: 1

Problem: Short answer needed: outcome of this test for COc1ccc(N2C(=O)/C(=C/c3ccco3)C(=O)NC2=S)cc1 ?
Result: 1
